# Test system: SF-539 CNS
# ASSAY NAME: NCI tumour cell line growth inhibition, 48 h; in the data active = GI50 below about 0.43 µM; inactive = the rest
Hi! Could you answer with just one of these? TRUE = active, FALSE = inactive

Below are worked cases with known answers.
{"columns": ["COMPOUND", "ASSIGNED CATEGORY"],
 "data": [
  ["Cc1cnc(NC2CCOCC2)nc1-n1cnc(C(=O)N[C@H](CN)c2cc(F)cc(Cl)c2)c1", "FALSE"],
  ["CC(=O)O[C@H]1[C@@H]2OC(=O)C3(CC3)C2C[C@H]2O[C@]2(C)CC/C=C(\\C)CCC[C@@H]1C (some centres not stated)", "FALSE"],
  ["CCN1C2=C(SC(=S)C1=C1SC(C(=O)OC)=C(C(=O)OC)S1)SC(=Nc1ccc(OC)cc1)C2=O", "FALSE"],
  ["N=C(N)c1ccc(-c2ccc(-c3ccc(F)cc3)s2)nc1", "FALSE"],
  ["CN1CCN(Cc2ccc(NC(=O)c3cncc(C#Cc4cnc5ccc(Cl)nn45)c3)cc2C(F)(F)F)CC1", "FALSE"],
  ["c1ccc(-c2cccc(-c3ccccn3)n2)nc1", "TRUE"]
]}

State the result this test recorded for CS(=O)(=O)OCCn1c2c(c3c(O)cccc31)C(=O)c1ccccc1-2 . FALSE
